- targetOfAssay: OsSMF1 (Oryza sativa, UniProt Q6ZLB0 1-436)
- Sequence: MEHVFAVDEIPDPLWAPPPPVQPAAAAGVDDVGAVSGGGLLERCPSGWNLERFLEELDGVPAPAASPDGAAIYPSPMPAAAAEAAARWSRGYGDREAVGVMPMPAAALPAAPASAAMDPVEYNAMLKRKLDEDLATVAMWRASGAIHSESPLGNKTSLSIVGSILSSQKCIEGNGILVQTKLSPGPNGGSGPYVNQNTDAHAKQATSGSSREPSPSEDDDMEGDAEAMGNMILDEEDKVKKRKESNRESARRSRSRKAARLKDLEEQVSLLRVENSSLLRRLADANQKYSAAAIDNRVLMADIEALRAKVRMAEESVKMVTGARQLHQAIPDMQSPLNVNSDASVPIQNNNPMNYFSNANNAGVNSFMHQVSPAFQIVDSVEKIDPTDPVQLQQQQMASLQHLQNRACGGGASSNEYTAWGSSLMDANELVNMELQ
- procedureDetails: protein-binding microarray (RPBM); PBS, 2% BSA, 51.3 ng/ul salmon testes DNA, 50 uM zinc acetate, 200 nM TF, 25 C, 1 h; high values mean tight binding
- runConditions: protein: recombinant; tags: N-terminal polyhistidine and DsRed monomer fusion (pET32a); chain copies: 2; label: CyDye5-dUTP incorporated in the synthesized complementary strand; 3' TTTTT single-stranded linker to array surface; dsDNA, one strand shown
Whole data set: some 39,000 sequences, median “fluorescence intensity (a.u.)” near 4,300, cut for the highest 2% near 39,000. Shown is part of a subset that was picked to be rich in the highest values.
This section presents sequences with their documented binding signal values.

Example entries and their recorded answers appear below.
Recorded binding signal for `CCCACCACACACCCGGCCCCACATGTCATCCACCCATCCACGGAGTCACCTAGTGCAG` , please?
4500 fluorescence intensity (a.u.)

Recorded binding signal for `TAGATGTTACTCCCTCCGTCCCTTCGTCCTAAAATGTAGCCGGAGTCACCTAGTGCAG` , please?
35900 fluorescence intensity (a.u.)

Recorded binding signal for `ACCTTCATTGGATCTGCCTCCCTGCAAGCCTCTGCCTCAACGGAGTCACCTAGTGCAG` , please?
43300 fluorescence intensity (a.u.)

Recorded binding signal for `CAACTGGCCATGTATGCACATGCACCCCAGAGACAACCTACGGAGTCACCTAGTGCAG` , please?
3420 fluorescence intensity (a.u.)

Recorded binding signal for `ACTTGTCACTTGGTTCACACTAAGAGCACTTGACATATCTCGGAGTCACCTAGTGCAG` , please?
17900 fluorescence intensity (a.u.)

Next:
Recorded binding signal for `ACATCATCGGCTACGTCAGGTCCAGCGCCGCCGCCAAGGCCGGAGTCACCTAGTGCAG` , please?
6640 fluorescence intensity (a.u.)

Recorded binding signal for `CAGTTCTTAAACTTGTAAAGTTGTGTCATATACCACATTACGGAGTCACCTAGTGCAG` , please?
39600 fluorescence intensity (a.u.)
